System: A549 human lung cancer cell line
Assay: MTT cell viability / cytotoxicity on A549
Assay type: cell-based
Settings: A549 cell line, MTT, mean ± S.D. of three determinations
As shown below, each of these molecules has a reported IC50 value.

molecule | value observed
CC(=O)Nc1ccccc1OCc1nnc(SCC(=O)Nc2nc3ccc([N+](=O)[O-])cc3s2)o1 | > 1000 µM
N.N.[Cl][Pt][Cl] [cisplatin, reference compound] | 4.98 µM

Now look at this one.
Observed IC50 on A549 human lung cancer cell line for COc1ccc2nc(NC(=O)CSc3nnc(COc4ccccc4NC(C)=O)o3)sc2c1 , please.
> 1000 µM
